Ref: the EternaBench riboswitch data

# System: MS2 coat protein
# assay-details: apparent Kd, MS2 coat protein; higher = weaker binding; RNA-MaP array
# details: designed as: OFF switch for flavin mononucleotide; no ligand
apparent Kd values by entry

[
  {
    "residue-string": "GCAAUUCUUGAGAAGGUCGUAGUGCGCAGACCAAAAGCACAUGAGGAUCACCCAUGUGAUCAAACGAAGGAUAUCACAGUAGAA",
    "apparent Kd / nM": 51.9
  },
  {
    "residue-string": "GGAGUGUGAGGAUAUGACGCGCCAGGCACACUUGAAUGCGCUCAGAAGGCACAUGAGGAUCACCCAUGUAAGCA",
    "apparent Kd / nM": 8.29
  },
  {
    "residue-string": "UGGGUUACCUCAGGAUAUCGCCUUGUACAUGAGGAUCACCCAUGUAGUAUCGGCCGUGUGUGCAUCGAGAAGGGAGUAACCUUC",
    "apparent Kd / nM": 75.2
  },
  {
    "residue-string": "CCAUGUAAUGUAAGGAUAUUCCAGGUAAUUACUUUGAAGAAGGUACAUGAGGAUCACCCAUGUGGAAACGAAUG",
    "apparent Kd / nM": 18.6
  }
]

====

# Test system: MS2 coat protein
# assay-details: apparent Kd, MS2 coat protein; higher = weaker binding; RNA-MaP array; tryptophan 2.4 mM where present
# details: ligand present: tryptophan; designed as: ON switch for tryptophan
Tick class 1 if apparent Kd is 20 nM or greater. Tick class 0 if apparent Kd is less than 20 nM.

[
  {
    "residue-string": "ACGUUGAAGUCGGCCGCCACUGAUUUCAUGUUCAACAUGAGGAUCACCCAUGUACCUUAUGUUAACAGGACCGGGACGUAUACGA",
    "classification": "class 1"
  },
  {
    "residue-string": "AGUUACUCGAACAUGGUUGACGAGUGGCAACGAGGACCGGUACGGCCGCCACUCGAAUAAACAUGAGGAUCACCCAUGUACAAAU",
    "classification": "class 1"
  },
  {
    "residue-string": "GCGUGGUCUGCGGCCGCCACUCAAGGAGCUACAUAGCUCCUAGACAUGAGGAUCACCCAUGUCGCGAGGACCGGGUAGAUUCUCC",
    "classification": "class 1"
  },
  {
    "residue-string": "CUACAUUUGUAGAAACCGGUCAACAAUAAUCGAGGACCGGUACGGCCGCCACUCGUAUAAUUUAAUACAUGAGGAUCACCCAUGU",
    "classification": "class 0"
  },
  {
    "residue-string": "ACAUUAGCCACGGCCGCCACUGCCUUAUGAUUAUAAGGAUUAAUGAACAUGAGGAUCACCCAUGUCAGGACCGGGUGCCUACCAU",
    "classification": "class 1"
  },
  {
    "residue-string": "AUAAUAAUCAUGGGUGAAGGUCCUCGCAAACGAGGACCGGUACGGCCGCCACUCGAACAUGAGGAUCACCCAUGUGUGAGGACCU",
    "classification": "class 1"
  },
  {
    "residue-string": "AUAACCCUUGACUAAAACACUAAAUCAGUUCGAGGACCGGUACGGCCGCCACUCGUGUCAAGACAUGAGGAUCACCCAUGUACCU",
    "classification": "class 1"
  },
  {
    "residue-string": "UCGUUUUAGUCGGCCGCCACUGUAUGCAUGUUUAACAUGAGGAUCACCCAUGUCCCGUUCUAUUUCAGGACCGGGACGUAAUCGA",
    "classification": "class 1"
  },
  {
    "residue-string": "GGUUACUCUACGGCCGCCACUGAUAAAUAAUAAACCUGUACAUAAACAUGAGGAUCACCCAUGUACAGGACCGGGUAGUGUAACC",
    "classification": "class 1"
  },
  {
    "residue-string": "UUUUACGGCGAUCUGGGUUUACCAGAUCGGCGAGGACCGGUACGGCCGCCACUCGUGUUUCUUUGACAUGAGGAUCACCCAUGUA",
    "classification": "class 0"
  },
  {
    "residue-string": "AACAUGAGGAUCACCCAUGUCCCAUGUGAACGAGGACCGGUACGGCCGCCACUCGACUGAGGCGGCACAUGAGGAUCACCCACAU",
    "classification": "class 1"
  },
  {
    "residue-string": "GCUAGGUCAUCGGCCGCCACUAUUAGUGGUUCGAACAUGAGGAUCACCCAUGUGCCACAUGCGCAUAGGACCGGGAUGACCUAGC",
    "classification": "class 0"
  },
  {
    "residue-string": "AAUAUAUAGACGGCCGCCACUGGAACCAAUACAUGAGGAUCACCCAUGUGAAAAGGAUAGGUUCACAGGACCGGGUCUUCAUGUA",
    "classification": "class 0"
  },
  {
    "residue-string": "AUUCAUGGAAACAUGACAUACAUAACCGGUCGAGGACCGGUACGGCCGCCACUCGGUUGGUGGCACAUGAGGAUCACCCAUGUUA",
    "classification": "class 1"
  },
  {
    "residue-string": "GGAGUAGAUGCGGCCGCCACUUUCUCAAGACACUACAUGAGGAUCACCCAUGUCCAUUCUACACUAAGGACCGGGCAUCCCAUGG",
    "classification": "class 1"
  },
  {
    "residue-string": "AAUUAAACAUCGGCCGCCACUUACUCAUGAGGUAACAACAUGAGGAUCACCCAUGUUUGAGGAUCAAGGACCGGGAUGUAAUUUU",
    "classification": "class 1"
  }
]

====

apparent Kd by entry:
# Tested on: MS2 coat protein
# assay-details: apparent Kd, MS2 coat protein; higher = weaker binding; RNA-MaP array
# details: designed as: OFF switch for flavin mononucleotide; no ligand

[
  {
    "residue-string": "UGGCUUGAAGGAUAUACAUGAGGAUCACCCAUGUAUCGCUAAAAGAGAAAUCCAUAAUGUAGAAGGUCAUCCCA",
    "apparent Kd / nM": 8.91
  },
  {
    "residue-string": "ACCGUGUCAGGAUAUCGGGUAUUCUUCCGUAUAAUACCAGCCGAGAAGGGACAUGAGGAUCACCCAUGUGGACA",
    "apparent Kd / nM": 33.2
  },
  {
    "residue-string": "CUAUGGGAUAAGGAUAUAAUAAUUGAGAAGGAGUUAGAAGGUAUAACAUGAGGAUCACCCAUGUGAGGGCCCUA",
    "apparent Kd / nM": 9.22
  },
  {
    "residue-string": "CAUACGCCGCAGAAGGAGUCGAGUCCGUUUCAACUAGGAUAUGCCAGAACAUGAGGAUCACCCAUGUUGCGGGUGCAGCUCAAU",
    "apparent Kd / nM": 37.8
  },
  {
    "residue-string": "UGCCUCCAGCGAGGAUAUAUGUAGAGAUACACCAUAGAAGGCGCUGUAGUGGAACAUGAGGAUCACCCAUGUGACCUCGCCCGG",
    "apparent Kd / nM": 13.2
  },
  {
    "residue-string": "AGAUUCUCUGAAGGAUAUCGCGUUUAUUUCGAGCGAGAAGGUCAAUUAUGGGAGAUGCACAUGAGGAUCACCCAUGUUCGAAAA",
    "apparent Kd / nM": 339
  },
  {
    "residue-string": "ACAAGGAGUCAAGGAUAUGAUAGAAGUUACACAUGAGGAUCACCCAUGUUUCUCCGGUGUCAGAAUCAGAAGGUGAGUAUGCAU",
    "apparent Kd / nM": 85.2
  }
]

====

# Test system: MS2 coat protein
# assay-details: apparent Kd, MS2 coat protein; higher = weaker binding; RNA-MaP array; FMN 200 µM where present
# details: designed as: OFF switch for flavin mononucleotide; no ligand
Classification field. Basis: apparent Kd. Definitions: bottom range (below 20 nM), center range (20 nM to below 50 nM), top range (50 nM or more)

[
  {
    "residue-string": "AAAAAGUGAGGAUAUGCUGCUCGUCACUUGCGUGAUGAGUAGCAGAAGGCACAUGAGGAUCACCCAUGUAAAGA",
    "classification": "center range"
  },
  {
    "residue-string": "GGUGCGUAUGUGAGGAUAUGCUGGUCCUUGGAUCGGCAGAAGGCACAUGAGGAUCACCCAUGUGGUGUCGUACG",
    "classification": "top range"
  },
  {
    "residue-string": "AACUUGUCAGGAUAUCUUACAUUUGCAUCAUAGUUACCAUUGGAGAAGGGACAUGAGGAUCACCCAUGUUUGGU",
    "classification": "center range"
  },
  {
    "residue-string": "CUAGCCCAGCCCGCCUAGUUCGGGAGAAGGAGGAGACAUGAGGAUCACCCAUGUGGCCUUAUCUCCUAGGAUAUCCCGGCGGGA",
    "classification": "bottom range"
  },
  {
    "residue-string": "GGGCCCGGAGGAUAUACAAUGGGCCCGGGAAAUUGGGCCCUACAUGAGGAUCACCCAUGUAGAAGGUUGGGCCC",
    "classification": "bottom range"
  },
  {
    "residue-string": "GCCUCGCUGUGAGGAUAUUACGCCUACCGGCAAAAUGCGGUUUCAGGUCCGUAAGAAGGCACAUGAGGAUCACCCAUGUAAGAA",
    "classification": "center range"
  },
  {
    "residue-string": "AGUACAUCAGGAUAUACAUGGAAGAUCAUUAUGACCCAUCUACAUGAGGAUCACCCAUGUAGAAGGGAUGUACA",
    "classification": "center range"
  },
  {
    "residue-string": "AAGGAUAGAGGAUAUACAUAGAUACAGAUUCGUGUAGAACUACAUGAGGAUCACCCAUGUAGAAGGCUAUCCUA",
    "classification": "bottom range"
  },
  {
    "residue-string": "AUAAAACGAGGAUAUGCUGGGCUUCUGUGAUGCAUAUGCUCACAUGAGGAUCACCCAUGUAGAAGGUGUAAAAU",
    "classification": "top range"
  },
  {
    "residue-string": "UAUCCACAUGAGGAUCACCCAUGUGAGGAUAUGUCCAUAUUCGGCAAAUCGGAUAUGGACAGAAGGCACACCGG",
    "classification": "center range"
  },
  {
    "residue-string": "ACACUGUGAGGAUAUACAUGAGGAUCACCCAUGUUAAGGAAGUCGUGGUUAAUUUAAGGUAGAAGGCGCUUAUU",
    "classification": "center range"
  },
  {
    "residue-string": "CUUGCGCGCUCGCCACUUUUCCCACAUGAGGAUCACCCAUGUCAGGAUAUACGUACCGAAAUGGCGUAGAAGGGACACGGGUUA",
    "classification": "top range"
  },
  {
    "residue-string": "GGAUAGGACAGAGGAUAUACGUGCUAGAGAUACUAGCAAAAUUUCCUCACAUGAGGAUCACCCAUGUAGAAGGCUGUCCUAACG",
    "classification": "bottom range"
  }
]
